Reference source for all entries: the supplement of paper PMC11821682

Test system: Danio rerio embryo
Assay Explanation: BMC10 any morphological effect or mortality at 120 hpf; higher = less toxic
Collected BMC10 any morphological effect or mortality values appear next to each entry.
Please state the figure in µM; there is no need to write the unit.

Q: I am curious: what BMC10 any morphological effect or mortality value has been reported for Cc1ccc2c(c1)c1c3n2CCNC3CCC1 (stereo not given) ?
Ans: 5.42

Q: # query: BMC10 any morphological effect or mortality of entry C[C@]12CC[C@H](O)C[C@H]1CC[C@@H]1[C@@H]2CC[C@]2(C)[C@@H](c3ccc(=O)oc3)C[C@H]3O[C@]132
Ans: 2.23

---

Tested on: Danio rerio embryo
Assay Explanation: BMC10 any morphological effect or mortality at 120 hpf; higher = less toxic
Reported BMC10 any morphological effect or mortality values for a set of molecules

Some solved entries appear below for comparison.
>>> result_value("O=C(/C=C/c1ccc(O)c(O)c1)O[C@@H]1C[C@@](O)(C(=O)O)C[C@@H](O)[C@@H]1O [5-Caffeoylquinic acid]")
"> 100 µM"
>>> result_value("CC(=O)O[C@H]1CC(=O)OC(C)(C)[C@@H]2CC(=O)[C@]3(C)[C@H](CC[C@@]4(C)[C@H](c5ccoc5)OC(=O)[C@H]5O[C@]543)[C@@]12C [Nomilin]")
"> 100 µM"
>>> result_value("CN1CCN(C(c2ccc(Cl)cc2)c2ccc(Cl)cc2)CC1 [1-[bis(4-chlorophenyl)methyl]-4-methyl-piperazine]")
"12.6 µM"

Q: Identify the measured BMC10 any morphological effect or mortality of CC1(C)[C@@H]2CC[C@@]1(C)[C@H](O)C2 [Isoborneol] for Danio rerio embryo.
Ans: > 100 µM

Q: Identify the measured BMC10 any morphological effect or mortality of Cc1nnc(C(C)C)n1[C@@H]1C[C@H]2CC[C@@H](C1)N2CC[C@H](NC(=O)C1CCC(F)(F)CC1)c1ccccc1 [Maraviroc] for Danio rerio embryo.
Ans: > 100 µM

---

Test system: Danio rerio embryo
Assay Explanation: BMC10 any morphological effect or mortality at 120 hpf; higher = less toxic
Value Kind: BMC10 any morphological effect or mortality

Solved entries:
>>> result_value("C[C@H](Cn1cnc2c(N)ncnc21)OCP(=O)(O)O")
"> 100 µM"
>>> result_value("CC(C)OC(=O)[C@H](C)N[P@](=O)(CO[C@H](C)Cn1cnc2c(N)ncnc21)Oc1ccccc1")
"> 100 µM"

Next molecule, BMC10 any morphological effect or mortality to be filled in.
Q: Give its BMC10 any morphological effect or mortality value. Item: Cl.N=C(N)NC(=N)N1CCOCC1
Ans: > 100 µM

---

Tested on: Danio rerio embryo
Assay Explanation: LEL larval photomotor response dark phase 120 hpf
Quick reference: LEL larval photomotor response dark phase 120 hpf of the listed items.

>>> result_value("CC(C)C(=O)SCCCCCCC(=O)Nc1nc(-c2ccccc2)cs1 [NCH-51]")
"> 100 µM"
>>> result_value("O=c1c(O)c(-c2ccccc2)oc2cc(O)cc(O)c12 [Galangin]")
"> 100 µM"
>>> result_value("C[C@H]1[C@@H](O)O[C@@H]2O[C@@]3(C)CC[C@H]4[C@H](C)CC[C@@H]1[C@@]24OO3 [Dihydroartemisinin]")
"1.23 µM"
>>> result_value("Cc1cc(C)nc(NS(=O)(=O)c2ccc(NC(=S)NC(=O)COc3ccc(Br)cc3Cl)cc2)n1 [ZCL 278]")
"> 100 µM"
>>> result_value("CNc1ccc([N+](=O)[O-])c(Nc2ccc3[nH]ncc3c2)n1 [KRIBB11]")
"1.23 µM"
>>> result_value("COc1c2c(cc3c1-c1c(cc4c(c1OC)OCO4)CC(C)C(C)C3)OCO2 (configuration not stated) [Schisandrin C]")
"> 100 µM"

Q: For the compound shown here, O=c1ccc2cc3ccoc3cc2o1 [Psoralen] , give the reported LEL larval photomotor response dark phase 120 hpf.
Ans: 33.3 µM

Q: Form field: reported LEL larval photomotor response dark phase 120 hpf of Cc1cc(CCCOc2c(C)cc(-c3noc(C(F)(F)F)n3)cc2C)on1 [Pleconaril]
Ans: > 100 µM

Q: Any idea what LEL larval photomotor response dark phase 120 hpf was measured for C[C@@H]1CCO[C@H]2Cn3cc(C(=O)NCc4ccc(F)cc4F)c(=O)c(O)c3C(=O)N12 [Dolutegravir] ?
Ans: > 100 µM

Q: Quick one: LEL larval photomotor response dark phase 120 hpf of C[C@H]1[C@H](C)CC[C@]2(C(=O)O)CC[C@]3(C)C(=CC[C@@H]4[C@@]5(C)CC[C@H](O)C(C)(C)[C@@H]5CC[C@]43C)[C@H]12 [Ursolic acid] ?
Ans: > 100 µM

Q: Dear colleague, I am looking for the recorded LEL larval photomotor response dark phase 120 hpf of the following compound: CC(C)C[C@H](NC(=O)[C@H]1O[C@@H]1C(=O)O)C(=O)NCCCCNC(=N)N [E-64]
Ans: > 100 µM

Q: Which LEL larval photomotor response dark phase 120 hpf reading was recorded for the compound CCC[C@H](NC(=O)/C(C#N)=C/c1cccc(Br)n1)c1ccccc1 [Degrasyn] ?
Ans: > 100 µM
